All values here come from patent US20100035865A1.

Tested on: AMPA receptors
Assay: AMPA ES Cell FLIPR Screen, G7330B (EC50 and % effect)
Format: cell-based, murine
Settings: individual determinations; ES cell-derived neurons, 32 uM AMPA challenge; read-out: G7330B (U): EC50
So I've got a bunch of compounds here, and I need their EC50 values.

Please state, for each entry, its recorded EC50.
1. CC(C)S(=O)(=O)N[C@@H]1COCC[C@H]1c1ccc(-c2ccccc2C#N)cc1
2. CC(C)S(=O)(=O)NC1CCOCC1c1ccc(-c2ccccc2)cc1 (stereo not shown)

Reply:
1.25 µM
7.17 µM

Please state, for each entry, its recorded EC50.
1. CC(C)S(=O)(=O)N[C@@H]1COCC[C@H]1c1ccc(-c2ccc(S(C)(=O)=O)cc2)cc1
2. CC(=O)N1CCC(NS(=O)(=O)C(C)C)C(c2ccc(-c3ccc(C#N)cc3)cc2)C1 (stereo not shown)

Reply:
> 10 µM
6.44 µM

====

Tested on: AMPA receptors
Assay: AMPA ES Cell FLIPR Screen, G7330B (EC50 and % effect)
Assay type: cell-based, murine
Settings: individual determinations; ES cell-derived neurons, 32 uM AMPA challenge; read-out: G7330B (U): EC50
pEC50: −log10 of the molar value.
So I've got a bunch of compounds here, and I need their pEC50 values.

Please state, for each entry, its recorded pEC50.
1. CC(C)S(=O)(=O)N[C@@H]1CCNC[C@H]1c1ccc(-c2ccccc2C(N)=O)cc1 (relative stereo) [Example 21]
2. CC(C)S(=O)(=O)NC1COCCC1(O)c1ccc(-c2ccccc2)cc1 (centres unmarked) [Example 42]
3. CCCS(=O)(=O)N[C@@H]1CNCC[C@H]1c1ccc(-c2ccccc2)cc1 (relative stereo) [Example 10]
4. CC(C)S(=O)(=O)NC1CCNCC1c1ccc(-c2ccccc2C#N)cc1 (centres unmarked) [Example 20]

Reply:
["< 4.49", 4.92, "< 4.49", "< 4.49"]

Please state, for each entry, its recorded pEC50.
1. CC(C)S(=O)(=O)NC1CCNCC1c1ccc(-c2ccccc2Cl)cc1 (centres unmarked) [Example 22]
2. CC(C)S(=O)(=O)NC1CCNCC1c1ccc(-c2ccccc2)cc1 (centres unmarked) [Example 18]

Reply:
1: < 4.49; 2: < 4.49

Please state, for each entry, its recorded pEC50.
1. CC(C)S(=O)(=O)NC1COCCC1c1ccc(-c2ccc(C#N)cc2)cc1 (centres unmarked) [Example 35]
2. CC(C)S(=O)(=O)N[C@@H]1CN(C)CC[C@H]1c1ccc(-c2ccccc2)cc1 [Example 4]

Reply:
1. 5.05
2. < 4.49

====

So I've got a bunch of compounds here, and I need their pEC50 values.
System: AMPA receptors
Test: AMPA ES Cell FLIPR Screen, G7330B (EC50 and % effect)
Type: cell-based, murine
Conditions: individual determinations; ES cell-derived neurons, 32 uM AMPA challenge; read-out: G7330B (U): EC50
Answers are plain numbers, as −log10 of the molar value.

- CC(=O)N1CC[C@@H](NS(=O)(=O)C(C)C)[C@H](c2ccc(NC(=O)c3cc(F)cc(F)c3)cc2)C1 (relative stereo) [Example 40]: 4.93

Please state, for each entry, its recorded pEC50.
1. CC(C)S(=O)(=O)N[C@H]1COCC[C@]1(O)c1ccc(-c2ccccc2)cc1 (relative stereo) [Example 41]
2. CC(=O)N1CCC(NS(=O)(=O)C(C)C)C(c2ccc(-c3ccccc3)cc2)C1 (centres unmarked) [Example 27]
3. CC(C)S(=O)(=O)N[C@@H]1COCC[C@H]1c1ccc(-c2ccccc2Cl)cc1 [Example 36]

Reply:
5.52
5.16
5.15
